# Test system: LNCaP
# test: ATP-dependent cell viability assay (Cell Titer Glo), Example 12
# assaySetup: human, 3 days
experimentalReadout: Therapeutic Index = IC50 stimulated PBMC/IC50 cancer cell

Worked cases, answers included:
[
  {
    "molecule": "CCC(=O)O[C@]1(C(=O)CO)CC[C@H]2[C@@H]3CCC4=CC(=O)CC[C@]4(C)[C@H]3CC[C@@]21C [CB-03-01, cortexolone 17α-propionate]",
    "valueMeasured": 0
  },
  {
    "molecule": "CCCC(=O)OCC(=O)[C@@]1(OC(=O)CCC)CCC2C3CCC4=CC(=O)CC[C@]4(C)C3CC[C@@]21C (stereo partly shown) [CB-03-03]",
    "valueMeasured": 9
  },
  {
    "molecule": "CCCCC(=O)O[C@]1(C(=O)CO)CC[C@H]2[C@@H]3CCC4=CC(=O)CC[C@]4(C)[C@H]3CC[C@@]21C [CB-03-05, cortexolone 17α-valerate]",
    "valueMeasured": 4
  }
]

Query: # query: Therapeutic Index = IC50 stimulated PBMC/IC50 cancer cell | item CCCC(=O)OC1(C(=O)CO)CCC2C3CCC4=CC(=O)CC[C@]4(C)C3=CC[C@@]21C (single isomer, unassigned) [CB-03-04] | system: LNCaP
Result: 8

###

# Test system: Panc1 (AR+)
# test: ATP-dependent proliferation assay with 10 nM DHT, pancreatic cancer cells (Examples 3, 4, 7)
# assaySetup: Panc1; Experiment 1, sigmoidal dose response fit; 10 nM DHT; 3 days
experimentalReadout: IC50

Query: Look at this molecule and give its reported IC50. CCCCC(=O)O[C@]1(C(=O)COC(=O)CC)CC[C@H]2[C@@H]3CCC4=CC(=O)CC[C@]4(C)[C@H]3CC[C@@]21C [CB-03-10, cortexolone 17α-valerate-21-propionate]
Result: 66 µM

###

# test: In vivo pharmacokinetics in plasma
# assaySetup: mouse; mice; PO 40 mg/kg; plasma
experimentalReadout: AUC (ng·h/mL)
Answers are plain numbers, in ng·h/mL.

Query: Look at this molecule and give its reported AUC. C[C@]12CCC(=O)C=C1CC[C@@H]1[C@@H]2CC[C@@]2(C)[C@H]1CC[C@]2(OC(=O)c1ccccc1)C(=O)CO [CB-03-06, cortexolone 17α-benzoate]
Result: 276

###

# Tested on: 7 cancer cell lines
# test: Therapeutic index over a panel of cancer cell lines
# Assay type: cell-based
# assaySetup: average over the cancer cell lines of Table VII
Label met when Therapeutic Index = IC50 stimulated PBMC/IC50 cancer cell, AVERAGE is strictly below 4; otherwise label not met.

[
  {
    "compound": "C[C@]12CCC(=O)C=C1CC[C@@H]1[C@@H]2CC[C@@]2(C)[C@H]1CC[C@]2(OC(=O)c1ccccc1)C(=O)CO [CB-03-06, cortexolone 17α-benzoate]",
    "assignedClass": "not met"
  },
  {
    "compound": "CC(=O)O[C@]1(C(C)=O)CC[C@H]2[C@@H]3C=C(Cl)C4=CC(=O)[C@@H]5C[C@@H]5[C@]4(C)[C@H]3CC[C@@]21C [Cyproterone Acetate, reference compound]",
    "assignedClass": "met"
  },
  {
    "compound": "CCC(=O)O[C@]1(C(=O)CO)CC[C@H]2[C@@H]3CCC4=CC(=O)CC[C@]4(C)[C@H]3CC[C@@]21C [CB-03-01, cortexolone 17α-propionate]",
    "assignedClass": "met"
  }
]

// switching to the query compound
Query: Just wondering, is Therapeutic Index = IC50 stimulated PBMC/IC50 cancer cell, AVERAGE of CCCCC(=O)O[C@]1(C(=O)CO)CC[C@H]2[C@@H]3CCC4=CC(=O)CC[C@]4(C)[C@H]3CC[C@@]21C [CB-03-05, cortexolone 17α-valerate] below 4?
Result: met

###

# test: In vivo pharmacokinetics in plasma
# assaySetup: mouse; mice; iv 20 mg/kg; plasma
experimentalReadout: AUC (ng·h/mL)
Numbers only, in ng·h/mL.

Query: Look at this compound and give its reported AUC. C[C@]12CCC(=O)C=C1CC[C@@H]1[C@@H]2CC[C@@]2(C)[C@H]1CC[C@]2(OC(=O)c1ccccc1)C(=O)CO [CB-03-06, cortexolone 17α-benzoate]
Result: 896

###

# Test system: resting PBMC
# test: IC50 on resting (quiescent) PBMC
# Type: cell-based, human
# assaySetup: Homo sapiens, PBMC, read-out: IC50 on Resting PBMC, Example 7, Experiment 2
experimentalReadout: pIC50
One number for each entry, as −log10 of the molar value.

Query: Look at this compound and give its reported pIC50. C[C@]12CCC(=O)C=C1CC[C@@H]1[C@@H]2CC[C@@]2(C)[C@H]1CC[C@]2(OC(=O)c1ccccc1)C(=O)CO [CB-03-06, cortexolone 17α-benzoate]
Result: 4.07

###

# Tested on: MCF7
# test: In vitro proliferation / cytotoxic assay on breast cancer cells (Examples 14, 25)
# assaySetup: Homo sapiens, MCF7, 72 h
experimentalReadout: IC50 (µM)
Answers are plain numbers, in µM.

Query: Look at this compound and give its reported IC50. C[C@]12CCC(=O)C=C1CC[C@@H]1[C@@H]2CC[C@@]2(C)[C@H]1CC[C@]2(OC(=O)c1ccccc1)C(=O)CO [CB-03-06, cortexolone 17α-benzoate]
Result: 25

###

Provide the reported IC50 of each item.
# System: PC3
# test: ATP-dependent cell viability assay (Cell Titer Glo), Example 12
# assaySetup: Homo sapiens, PC-3, 72 h, PC3; Tables I and II; titrated 3 uM to 200 uM; 3 days
# Description: Data shown in Table I were fitted through sigmoidal dose response curves and analyzed using Prizm statistical.
Answers are plain numbers, in µM.

Worked cases, answers included:
[
  {
    "molecule": "CCCC(=O)OC1(C(=O)CO)CCC2C3CCC4=CC(=O)CC[C@]4(C)C3=CC[C@@]21C (single isomer, unassigned) [CB-03-04]",
    "IC50 / µM": 135
  },
  {
    "molecule": "CCCC(=O)OCC(=O)[C@@]1(OC(=O)CCC)CCC2C3CCC4=CC(=O)CC[C@]4(C)C3CC[C@@]21C (some centres unmarked) [CB-03-03]",
    "IC50 / µM": 53
  },
  {
    "molecule": "CC(=O)O[C@]1(C(C)=O)CC[C@H]2[C@@H]3C=C(Cl)C4=CC(=O)[C@@H]5C[C@@H]5[C@]4(C)[C@H]3CC[C@@]21C [Cyproterone Acetate, reference compound]",
    "IC50 / µM": 90
  },
  {
    "molecule": "CCCCC(=O)O[C@]1(C(=O)CO)CC[C@H]2[C@@H]3CCC4=CC(=O)CC[C@]4(C)[C@H]3CC[C@@]21C [CB-03-05, cortexolone 17α-valerate]",
    "IC50 / µM": 170
  }
]

Now for another entry.
Query: Look at this molecule and give its reported IC50. CCC(=O)O[C@]1(C(=O)CO)CC[C@H]2[C@@H]3CCC4=CC(=O)CC[C@]4(C)[C@H]3CC[C@@]21C [CB-03-01, cortexolone 17α-propionate]
Result: 190

###

# Test system: LNCaP
# test: ATP-dependent cell viability assay (Cell Titer Glo), Example 12
# assaySetup: Homo sapiens, LNCaP, read-out: In vitro proliferation IC50
experimentalReadout: pIC50
Numbers only, as −log10 of the molar value.

[
  {
    "compound": "CC(=O)O[C@]1(C(C)=O)CC[C@H]2[C@@H]3C=C(Cl)C4=CC(=O)[C@@H]5C[C@@H]5[C@]4(C)[C@H]3CC[C@@]21C [Cyproterone Acetate, reference compound]",
    "pIC50": 4.66
  },
  {
    "compound": "CCC(=O)O[C@]1(C(=O)CO)CC[C@H]2[C@@H]3CCC4=CC(=O)CC[C@]4(C)[C@H]3CC[C@@]21C [CB-03-01, cortexolone 17α-propionate]",
    "pIC50": 4.48
  }
]

Now for another entry.
Query: Look at this compound and give its reported pIC50. CCCC(=O)OC1(C(=O)CO)CCC2C3CCC4=CC(=O)CC[C@]4(C)C3=CC[C@@]21C (single isomer, unassigned)
Result: 4.34

###

# Tested on: Panc1 (AR+)
# test: ATP-dependent proliferation assay with 10 nM DHT, pancreatic cancer cells (Examples 3, 4, 7)
# assaySetup: Homo sapiens, PANC-1, Panc1; Example 7, Experiment 1
experimentalReadout: IC50 (µM)
One number for each entry, in µM.

Query: Look at this compound and give its reported IC50. C[C@]12CCC(=O)C=C1CC[C@@H]1[C@@H]2CC[C@@]2(C)[C@H]1CC[C@]2(OC(=O)c1ccccc1)C(=O)CO [CB-03-06, cortexolone 17α-benzoate]
Result: 23

###

# System: MiaPaca2
# test: ATP-dependent cell viability assay (Cell Titer Glo), Example 12
# assaySetup: human, 3 days
experimentalReadout: Therapeutic Index = IC50 stimulated PBMC/IC50 cancer cell
One number for each entry.

Worked cases, answers included:
[
  {
    "compound": "CCCC(=O)OCC(=O)[C@@]1(OC(=O)CCC)CCC2C3CCC4=CC(=O)CC[C@]4(C)C3CC[C@@]21C (stereo partly shown) [CB-03-03]",
    "valueMeasured": 5
  },
  {
    "compound": "CCCC(=O)OC1(C(=O)CO)CCC2C3CCC4=CC(=O)CC[C@]4(C)C3=CC[C@@]21C (single isomer, unassigned) [CB-03-04]",
    "valueMeasured": 2
  },
  {
    "compound": "CCCCC(=O)O[C@]1(C(=O)CO)CC[C@H]2[C@@H]3CCC4=CC(=O)CC[C@]4(C)[C@H]3CC[C@@]21C [CB-03-05, cortexolone 17α-valerate]",
    "valueMeasured": 2
  }
]

Now for another entry.
Query: Look at this compound and give its reported Therapeutic Index = IC50 stimulated PBMC/IC50 cancer cell. CCC(=O)O[C@]1(C(=O)CO)CC[C@H]2[C@@H]3CCC4=CC(=O)CC[C@]4(C)[C@H]3CC[C@@]21C [CB-03-01, cortexolone 17α-propionate]
Result: 0
